Numbers sourced from paper PMC10397247.

Biological target: T1, 4H895-AA
T1 chain: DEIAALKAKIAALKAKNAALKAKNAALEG
Assay: two-hybrid library CCmax;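 further: natural log of median RNA to DNA barcode read ratio; higher means stronger binding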
Settings: mean of both orientations
quantity_measured: interaction score

Use these answered entries as a reference point.
binder: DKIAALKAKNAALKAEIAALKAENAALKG [4H3020-AA]
quantity_measured: interaction score
data_value: -1.5
//
binder: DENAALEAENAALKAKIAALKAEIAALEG [4H1257-AA]
quantity_measured: interaction score
data_value: -1.61

1 = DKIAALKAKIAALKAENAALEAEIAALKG [4H2898-AA]
2 = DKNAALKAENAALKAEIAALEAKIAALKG [4H3782-AA]
Query :: Which shows the larger interaction score value: 1 or 2 ? Respond using the label that marks the chosen record.
Result :: 1
